testedSystem: T1, His-TRAF6_(310-522) (human, UniProt Q9Y4K3 310-522)
T1 construct: also called His-T6; recombinant TRAF6 wild-type; source: E. coli BL21 Codon Plus RIPL, purified (Ni-NTA)
T1 sequence: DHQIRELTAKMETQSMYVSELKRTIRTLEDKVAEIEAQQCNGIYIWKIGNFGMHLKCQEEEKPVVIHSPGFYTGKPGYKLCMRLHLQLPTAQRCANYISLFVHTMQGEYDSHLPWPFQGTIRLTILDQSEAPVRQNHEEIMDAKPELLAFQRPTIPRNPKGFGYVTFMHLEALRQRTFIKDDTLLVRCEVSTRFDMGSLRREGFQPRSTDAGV
experimentNotes: AlphaScreen or HTRF; AlphaScreen PPI assay: His-TRAF and GST-LMP1, GST-CD40 or GST-RANK in PBS with 0.5% BSA and 0.1% Tween-20, 1 h at RT; standard 300 nM His-TRAF and 100 nM GST protein if not indicated otherwise; for KD His-TRAF6 at different concentrations, fit one site-specific binding with hill slope
appliedConditions: both partners purified
reportedProperty: binding result

For GST-LMP1_(181-386) A204xAxA (domain or fragment, also called A204xAxA mutant; CTAR1 mutant; source: E. coli DH5α or BL21 Codon Plus RIPL, purified (glutathione Sepharose 4B)) LIWMYYHGQRHSDEHHHDDSLPHAQAAADDSGHESDSNSNEGRHHLLVSGAGDGPPLCSQNLGAPGGGPDNGPQDPDNTDDNGPQDPDNTDDNGPHDPLPQDPDNTDDNGPQDPDNTDDNGPHDPLPHSPSDSAGNDGGPPQLTEEVENKGGDQGPPLMTDGGGGHSHDSGHGGGDPHLPTLLLGSSGSGGDDDDPHGPVQLSYYD the binder record lists binding result as binds

For GST-LMP1_(181-386) S383A (domain or fragment, source: E. coli DH5α or BL21 Codon Plus RIPL, purified (glutathione Sepharose 4B)) LIWMYYHGQRHSDEHHHDDSLPHPQQATDDSGHESDSNSNEGRHHLLVSGAGDGPPLCSQNLGAPGGGPDNGPQDPDNTDDNGPQDPDNTDDNGPHDPLPQDPDNTDDNGPQDPDNTDDNGPHDPLPHSPSDSAGNDGGPPQLTEEVENKGGDQGPPLMTDGGGGHSHDSGHGGGDPHLPTLLLGSSGSGGDDDDPHGPVQLAYYD the binder record lists binding result as binds
